Readings of half-life at 5 µM for the listed compounds
experiment: Liver microsomal stability, human; format: in vitro ADME; settings: pH 7.4, 0.5 mg/mL human liver microsomes, 37 °C, read-out: Liver Microsome t½, Human
READOUT NAME: half-life at 5 µM

[
  {
    "COMPOUND": "Nc1ncnc2c1ncn2[C@@H]1O[C@@H]2CO[P@@](=O)(S)O[C@@H]3[C@H](O)[C@@H](CO[P@@](=O)(S)O[C@H]2[C@H]1O)O[C@H]3n1cnc2c(N)ncnc21 [ADU-S100]",
    "VALUE REPORTED": "> 8 h"
  },
  {
    "COMPOUND": "CO[C@H]1[C@H]2OP(=O)(O)OC[C@@]34C[C@@H]3[C@@H](n3cnc5c(N)ncnc53)[C@H](O)[C@@H]4O[P@](=O)(S)OC[C@H]1O[C@H]2n1cnc2c(=O)[nH]c(N)nc21 [ALG-031048]",
    "VALUE REPORTED": "> 8 h"
  }
]

---

# maps each entry to its half-life at 5 µM
experiment: Plasma stability, human; format: in vitro ADME; settings: 37 °C, read-out: Plasma t½, Human
READOUT NAME: half-life at 5 µM

[
  {
    "COMPOUND STRING": "CO[C@H]1[C@H]2OP(=O)(O)OC[C@@]34C[C@@H]3[C@@H](n3cnc5c(N)ncnc53)[C@H](O)[C@@H]4O[P@](=O)(S)OC[C@H]1O[C@H]2n1cnc2c(=O)[nH]c(N)nc21",
    "READOUT NAME": "half-life at 5 µM",
    "VALUE REPORTED": "> 60 min"
  },
  {
    "COMPOUND STRING": "Nc1ncnc2c1ncn2[C@@H]1O[C@@H]2CO[P@@](=O)(S)O[C@@H]3[C@H](O)[C@@H](CO[P@@](=O)(S)O[C@H]2[C@H]1O)O[C@H]3n1cnc2c(N)ncnc21",
    "READOUT NAME": "half-life at 5 µM",
    "VALUE REPORTED": "> 60 min"
  },
  {
    "COMPOUND STRING": "Nc1nc2c(ncn2[C@@H]2O[C@@H]3COP(=O)(O)O[C@H]4[C@@H](O)[C@H](n5cnc6c(N)ncnc65)O[C@@H]4COP(=O)(O)O[C@@H]2[C@@H]3O)c(=O)[nH]1",
    "READOUT NAME": "half-life at 5 µM",
    "VALUE REPORTED": "12.8 min"
  }
]

---

assay: Plasma stability, mouse; assay type: in vitro ADME; conditions: 37 °C, read-out: Plasma t½, Mouse

[
  {
    "MOLECULE": "CO[C@H]1[C@H]2OP(=O)(O)OC[C@@]34C[C@@H]3[C@@H](n3cnc5c(N)ncnc53)[C@H](O)[C@@H]4O[P@](=O)(S)OC[C@H]1O[C@H]2n1cnc2c(=O)[nH]c(N)nc21 [ALG-031048]",
    "half-life at 5 µM": "> 60 min"
  },
  {
    "MOLECULE": "Nc1nc2c(ncn2[C@@H]2O[C@@H]3COP(=O)(O)O[C@H]4[C@@H](O)[C@H](n5cnc6c(N)ncnc65)O[C@@H]4COP(=O)(O)O[C@@H]2[C@@H]3O)c(=O)[nH]1 [2′3′ cGAMP]",
    "half-life at 5 µM": "7.2 min"
  },
  {
    "MOLECULE": "Nc1ncnc2c1ncn2[C@@H]1O[C@@H]2CO[P@@](=O)(S)O[C@@H]3[C@H](O)[C@@H](CO[P@@](=O)(S)O[C@H]2[C@H]1O)O[C@H]3n1cnc2c(N)ncnc21 [ADU-S100]",
    "half-life at 5 µM": "> 60 min"
  }
]

---

molecular target: STING R232 (Homo sapiens, UniProt Q86WV6, H232R); experiment: Thermal shift binding assay (differential scanning fluorimetry)
Sequence (Q86WV6 139-379 H232R): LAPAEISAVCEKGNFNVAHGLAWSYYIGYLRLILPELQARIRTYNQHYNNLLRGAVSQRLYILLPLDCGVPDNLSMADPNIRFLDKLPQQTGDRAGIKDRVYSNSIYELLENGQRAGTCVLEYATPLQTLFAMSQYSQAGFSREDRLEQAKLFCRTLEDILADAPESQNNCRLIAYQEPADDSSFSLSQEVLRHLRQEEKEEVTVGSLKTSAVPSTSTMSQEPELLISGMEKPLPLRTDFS
pKd: −log10 of the molar value.
READOUT NAME: pKd

[
  {
    "COMPOUND STRING": "CO[C@H]1[C@H]2OP(=O)(O)OC[C@@]34C[C@@H]3[C@@H](n3cnc5c(N)ncnc53)[C@H](O)[C@@H]4O[P@](=O)(S)OC[C@H]1O[C@H]2n1cnc2c(=O)[nH]c(N)nc21",
    "VALUE REPORTED": 5.57
  }
]

---

target: ENPP1 (Homo sapiens, UniProt P22413); construct: purchased R&D Systems; test: ENPP1 stability assay; assay type: in vitro ADME; details: pH 9.5; 100 μM STING agonist, 26.5 nM recombinant human ENPP1, 37 °C, up to 2 h; read-out: ENPP1 t½
Sequence (P22413 whole entry): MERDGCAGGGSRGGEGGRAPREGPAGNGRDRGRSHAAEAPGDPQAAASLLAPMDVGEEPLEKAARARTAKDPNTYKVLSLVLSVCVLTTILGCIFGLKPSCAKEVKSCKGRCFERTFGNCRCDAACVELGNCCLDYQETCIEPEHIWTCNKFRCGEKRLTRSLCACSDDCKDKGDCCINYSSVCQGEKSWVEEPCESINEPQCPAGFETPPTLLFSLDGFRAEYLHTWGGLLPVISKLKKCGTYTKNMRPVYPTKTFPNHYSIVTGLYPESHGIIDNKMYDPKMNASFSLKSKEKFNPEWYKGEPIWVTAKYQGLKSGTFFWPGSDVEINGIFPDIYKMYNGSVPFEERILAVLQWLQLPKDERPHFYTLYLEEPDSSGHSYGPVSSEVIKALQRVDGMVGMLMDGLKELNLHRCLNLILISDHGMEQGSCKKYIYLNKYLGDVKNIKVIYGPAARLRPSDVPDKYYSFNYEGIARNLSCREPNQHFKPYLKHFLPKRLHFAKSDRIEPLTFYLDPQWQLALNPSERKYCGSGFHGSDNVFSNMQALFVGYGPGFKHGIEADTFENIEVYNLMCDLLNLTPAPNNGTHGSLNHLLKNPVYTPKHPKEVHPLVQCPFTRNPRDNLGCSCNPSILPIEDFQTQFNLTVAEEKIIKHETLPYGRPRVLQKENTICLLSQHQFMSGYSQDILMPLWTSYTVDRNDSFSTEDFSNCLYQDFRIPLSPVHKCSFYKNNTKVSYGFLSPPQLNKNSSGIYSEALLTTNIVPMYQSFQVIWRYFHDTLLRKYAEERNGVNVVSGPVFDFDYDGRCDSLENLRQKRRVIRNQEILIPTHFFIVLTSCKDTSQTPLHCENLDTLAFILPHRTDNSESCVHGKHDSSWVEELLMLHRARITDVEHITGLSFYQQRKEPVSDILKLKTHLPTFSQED
READOUT NAME: half-life at 100 μM

[
  {
    "COMPOUND STRING": "CO[C@H]1[C@H]2OP(=O)(O)OC[C@@]34C[C@@H]3[C@@H](n3cnc5c(N)ncnc53)[C@H](O)[C@@H]4O[P@](=O)(S)OC[C@H]1O[C@H]2n1cnc2c(=O)[nH]c(N)nc21",
    "MEASURED TARGET": "ENPP1 (Homo sapiens, UniProt P22413)",
    "VALUE REPORTED": "> 2 h"
  }
]

---

tested on: phosphodiesterase I from Crotalus adamanteus venom (SVPD); test: in vitro; details: pH 8
READOUT NAME: remaining at 24 h (%)

[
  {
    "COMPOUND STRING": "CO[C@H]1[C@H]2OP(=O)(O)OC[C@@]34C[C@@H]3[C@@H](n3cnc5c(N)ncnc53)[C@H](O)[C@@H]4O[P@](=O)(S)OC[C@H]1O[C@H]2n1cnc2c(=O)[nH]c(N)nc21",
    "READOUT NAME": "remaining at 24 h",
    "VALUE REPORTED": 100
  }
]

---

assay: Liver microsomal stability, mouse; type: in vitro ADME; conditions: pH 7.4, 0.5 mg/mL mouse liver microsomes, 37 °C, read-out: Liver Microsome t½, Mouse
half-life at 5 µM values by entry
READOUT NAME: half-life at 5 µM

[
  {
    "COMPOUND STRING": "Nc1ncnc2c1ncn2[C@@H]1O[C@@H]2CO[P@@](=O)(S)O[C@@H]3[C@H](O)[C@@H](CO[P@@](=O)(S)O[C@H]2[C@H]1O)O[C@H]3n1cnc2c(N)ncnc21",
    "VALUE REPORTED": "> 8 h"
  },
  {
    "COMPOUND STRING": "CO[C@H]1[C@H]2OP(=O)(O)OC[C@@]34C[C@@H]3[C@@H](n3cnc5c(N)ncnc53)[C@H](O)[C@@H]4O[P@](=O)(S)OC[C@H]1O[C@H]2n1cnc2c(=O)[nH]c(N)nc21",
    "VALUE REPORTED": "> 8 h"
  }
]

---

biological target: STING R232 (Homo sapiens, UniProt Q86WV6, H232R); assay: HEK 293 STING R232 IFN-β reporter assay; type: cell-based; set-up: host or cells: 293T-Dual hSTING-R232 (HEK 293T derived); conditions: HEK 293 STING R232 cells, digitonin dosing buffer 30 min, 20 h; mean±standard deviation; read-out: Reporter Cell Assay EC50, STING R232 IFN-β
Sequence (Q86WV6 whole entry H232R): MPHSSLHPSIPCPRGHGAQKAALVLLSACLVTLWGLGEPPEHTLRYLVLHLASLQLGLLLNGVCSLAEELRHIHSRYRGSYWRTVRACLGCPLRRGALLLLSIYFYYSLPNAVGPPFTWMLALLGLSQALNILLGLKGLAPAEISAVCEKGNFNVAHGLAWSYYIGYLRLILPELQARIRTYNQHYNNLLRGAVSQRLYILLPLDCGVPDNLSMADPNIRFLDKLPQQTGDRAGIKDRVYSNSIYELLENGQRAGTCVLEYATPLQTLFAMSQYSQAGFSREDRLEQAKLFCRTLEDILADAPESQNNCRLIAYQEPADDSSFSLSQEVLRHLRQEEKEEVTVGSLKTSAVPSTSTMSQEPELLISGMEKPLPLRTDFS

[
  {
    "COMPOUND STRING": "CO[C@H]1[C@H]2OP(=O)(O)OC[C@@]34C[C@@H]3[C@@H](n3cnc5c(N)ncnc53)[C@H](O)[C@@H]4O[P@](=O)(S)OC[C@H]1O[C@H]2n1cnc2c(=O)[nH]c(N)nc21",
    "EC50": "132 nM"
  }
]
